Source of measurements: ChEMBL document CHEMBL1150119

Assignment: determine reported IC50 for the given molecules.
test: Cytotoxicity against human HRT18 cells after 48 hrs by MTT assay; assay type: functional, cell-based; details: HRT-18, 48 h
Report as a plain number; the unit µg/mL is understood.

IN: I would be grateful if you could share the reported IC50 for C=C1C(=O)O[C@@H]2[C@H]3O[C@]3(C)CC/C=C(\C)[C@@H](OC(=O)CC(C)(O)CC)C[C@@H]12 (some centres undefined) .
OUT: 8.75

IN: I would be grateful if you could share the reported IC50 for C=C1C(=O)O[C@@H]2[C@H]3O[C@]3(C)CC/C=C(\C)[C@@H](OC(=O)C(C)C(C)O)C[C@@H]12 (some centres undefined) .
OUT: 13.4

IN: I would be grateful if you could share the reported IC50 for `C=C1C(=O)O[C@@H]2[C@H]3O[C@]3(C)CC/C=C(\C)[C@@H](OC(=O)CC(C)(C)O)C[C@@H]12` .
OUT: 14.9

IN: I would be grateful if you could share the reported IC50 for COc1cccc2c1C(=O)c1c(O)c3c(c(O)c1C2=O)C[C@@](O)(C(C)=O)C[C@@H]3O[C@H]1C[C@H](N)[C@H](O)[C@H](C)O1.Cl [DAUNORUBICIN HYDROCHLORIDE] .
OUT: 0.11

* * *

test system: HCT-116; assay: Cytotoxicity against human HCT116 cells after 48 hrs by MTT assay; format: functional, cell-based; settings: HCT-116, 48 h
Assignment: determine reported IC50 for the given compounds.
Report as a plain number; the unit µg/mL is understood.

IN: What reported IC50 corresponds to `C=C1C(=O)O[C@@H]2[C@H]3O[C@]3(C)CC/C=C(\C)[C@@H](OC(=O)CC(C)(C)O)C[C@@H]12` on HCT-116?
OUT: 14.1

IN: What reported IC50 corresponds to C=C1C(=O)O[C@@H]2[C@H]3O[C@]3(C)CC/C=C(\C)[C@@H](OC(=O)CC(C)(O)CC)C[C@@H]12 (some centres undefined) on HCT-116?
OUT: 7.1

IN: What reported IC50 corresponds to COc1cccc2c1C(=O)c1c(O)c3c(c(O)c1C2=O)C[C@@](O)(C(C)=O)C[C@@H]3O[C@H]1C[C@H](N)[C@H](O)[C@H](C)O1.Cl [DAUNORUBICIN HYDROCHLORIDE] on HCT-116?
OUT: 0.28

IN: What reported IC50 corresponds to C=C1C(=O)O[C@@H]2[C@H]3O[C@]3(C)CC/C=C(\C)[C@@H](OC(=O)C(C)C(C)O)C[C@@H]12 (some centres undefined) on HCT-116?
OUT: 0.39
